Each recorded value in this set is attributed to the supplement of paper PMC10065799.

Please provide measured phosphorylation enrichment for the entries that follow.
System: Hck (UniProt P08631)
Sequence (P08631 whole entry, looked up): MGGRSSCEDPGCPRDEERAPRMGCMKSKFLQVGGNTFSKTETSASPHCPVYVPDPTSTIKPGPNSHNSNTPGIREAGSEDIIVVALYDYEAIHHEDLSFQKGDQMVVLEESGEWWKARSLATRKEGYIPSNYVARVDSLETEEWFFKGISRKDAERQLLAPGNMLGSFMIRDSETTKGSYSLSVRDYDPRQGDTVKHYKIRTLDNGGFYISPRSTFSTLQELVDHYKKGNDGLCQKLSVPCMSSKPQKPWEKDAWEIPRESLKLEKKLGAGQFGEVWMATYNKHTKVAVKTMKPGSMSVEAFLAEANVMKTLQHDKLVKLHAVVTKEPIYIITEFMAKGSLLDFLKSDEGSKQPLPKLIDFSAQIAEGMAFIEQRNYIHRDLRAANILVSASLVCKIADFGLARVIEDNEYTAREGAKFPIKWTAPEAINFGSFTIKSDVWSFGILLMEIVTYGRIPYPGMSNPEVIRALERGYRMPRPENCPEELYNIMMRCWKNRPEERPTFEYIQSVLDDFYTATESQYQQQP
Test: phosphorylation enrichment, bacterial display (enrichment ratio); higher = better substrate or ligand; peptides without Tyr show the background
No unit in the answer, only the number.

Value lookup for phosphorylation enrichment; key = HHIDFYKKTTN [FGFR1_Y654_YF]
0.378

Value lookup for phosphorylation enrichment; key = GEIQEYGAPSD [ABCC1_Y1508]
0.505

Value lookup for phosphorylation enrichment; key = RQLEIYRASRP [ERCC4_Y594]
0.316

Value lookup for phosphorylation enrichment; key = GGSSPYSRRLP [CDK13_Y351]
0.358

Value lookup for phosphorylation enrichment; key = EFAAGYNVKFD [GPX4_Y123]
0.449

Value lookup for phosphorylation enrichment; key = QRRLVYFERGA [RYR1_Y245_G248R_YF]
0.507

Value lookup for phosphorylation enrichment; key = NRNVRYLTLDI [AKR1C2_Y305]
0.523

====

System: FGFR3 (UniProt P22607)
Sequence (P22607 whole entry, looked up): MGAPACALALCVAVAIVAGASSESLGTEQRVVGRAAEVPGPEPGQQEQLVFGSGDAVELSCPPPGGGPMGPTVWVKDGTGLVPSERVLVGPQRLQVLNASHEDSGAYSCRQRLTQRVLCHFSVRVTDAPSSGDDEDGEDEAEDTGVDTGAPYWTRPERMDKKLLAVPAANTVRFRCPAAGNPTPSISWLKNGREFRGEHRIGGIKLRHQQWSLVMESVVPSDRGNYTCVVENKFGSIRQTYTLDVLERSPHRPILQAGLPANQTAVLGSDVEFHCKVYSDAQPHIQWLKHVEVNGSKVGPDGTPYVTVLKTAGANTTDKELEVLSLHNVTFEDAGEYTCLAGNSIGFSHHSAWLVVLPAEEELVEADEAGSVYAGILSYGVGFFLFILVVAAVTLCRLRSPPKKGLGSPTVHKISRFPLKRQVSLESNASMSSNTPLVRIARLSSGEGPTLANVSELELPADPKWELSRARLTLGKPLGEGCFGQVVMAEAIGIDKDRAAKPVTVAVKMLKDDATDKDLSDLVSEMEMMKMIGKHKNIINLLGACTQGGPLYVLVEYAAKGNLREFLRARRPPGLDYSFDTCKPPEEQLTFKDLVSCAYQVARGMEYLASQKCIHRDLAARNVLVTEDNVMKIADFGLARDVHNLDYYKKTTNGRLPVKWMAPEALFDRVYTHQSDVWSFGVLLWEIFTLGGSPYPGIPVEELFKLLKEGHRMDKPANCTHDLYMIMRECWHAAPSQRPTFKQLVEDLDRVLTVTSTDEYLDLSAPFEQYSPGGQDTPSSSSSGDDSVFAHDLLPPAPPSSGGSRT
Test: phosphorylation enrichment, bacterial display (enrichment ratio); higher = better substrate or ligand; peptides without Tyr show the background
Decision: phosphorylation enrichment >= 0.7 yields 1 (yes), all other cases yield 0 (no).

Does the reported phosphorylation enrichment for IRTIDYRFTVW [IDS_Y497_YF] fall at or above the 0.7 mark?
1 (yes)

Does the reported phosphorylation enrichment for FPKAHYHWLVL [APTX_Y214_R213H_YF] fall at or above the 0.7 mark?
1 (yes)

Does the reported phosphorylation enrichment for VKPRRYRPGTV [H3-5_Y41_H39R] fall at or above the 0.7 mark?
0 (no)

Does the reported phosphorylation enrichment for IVLEKYKLLPE [DHFR_Y157_D153V] fall at or above the 0.7 mark?
1 (yes)

Does the reported phosphorylation enrichment for LSQAKYQIRFR [CRLF1_Y272_F268S_YF] fall at or above the 0.7 mark?
0 (no)

Does the reported phosphorylation enrichment for PFVFFYSFLLK [PTEN_Y178_R173P_YF] fall at or above the 0.7 mark?
1 (yes)

Does the reported phosphorylation enrichment for RNIQQCNSFVS [PRKAR1A_Y373_Y373C] fall at or above the 0.7 mark?
0 (no)

Does the reported phosphorylation enrichment for RPGSGYTKIMR [PKLR_Y564_N566K] fall at or above the 0.7 mark?
0 (no)

Does the reported phosphorylation enrichment for NDFGNYNQQPS [HNRNPA2B1_Y306] fall at or above the 0.7 mark?
0 (no)

Does the reported phosphorylation enrichment for KILGTYYETGS [PAX2_Y72_R71T] fall at or above the 0.7 mark?
1 (yes)

Does the reported phosphorylation enrichment for TLARLYHRDST [LRIG1_Y1029_P1031R] fall at or above the 0.7 mark?
1 (yes)

Does the reported phosphorylation enrichment for CTTIHYNYLCN [TP53_Y234_M237L] fall at or above the 0.7 mark?
0 (no)

Does the reported phosphorylation enrichment for RHFTGCRIELQ [INSR_Y818_Y818C] fall at or above the 0.7 mark?
0 (no)

====

System: Fes (UniProt P07332)
Sequence (P07332 whole entry, looked up): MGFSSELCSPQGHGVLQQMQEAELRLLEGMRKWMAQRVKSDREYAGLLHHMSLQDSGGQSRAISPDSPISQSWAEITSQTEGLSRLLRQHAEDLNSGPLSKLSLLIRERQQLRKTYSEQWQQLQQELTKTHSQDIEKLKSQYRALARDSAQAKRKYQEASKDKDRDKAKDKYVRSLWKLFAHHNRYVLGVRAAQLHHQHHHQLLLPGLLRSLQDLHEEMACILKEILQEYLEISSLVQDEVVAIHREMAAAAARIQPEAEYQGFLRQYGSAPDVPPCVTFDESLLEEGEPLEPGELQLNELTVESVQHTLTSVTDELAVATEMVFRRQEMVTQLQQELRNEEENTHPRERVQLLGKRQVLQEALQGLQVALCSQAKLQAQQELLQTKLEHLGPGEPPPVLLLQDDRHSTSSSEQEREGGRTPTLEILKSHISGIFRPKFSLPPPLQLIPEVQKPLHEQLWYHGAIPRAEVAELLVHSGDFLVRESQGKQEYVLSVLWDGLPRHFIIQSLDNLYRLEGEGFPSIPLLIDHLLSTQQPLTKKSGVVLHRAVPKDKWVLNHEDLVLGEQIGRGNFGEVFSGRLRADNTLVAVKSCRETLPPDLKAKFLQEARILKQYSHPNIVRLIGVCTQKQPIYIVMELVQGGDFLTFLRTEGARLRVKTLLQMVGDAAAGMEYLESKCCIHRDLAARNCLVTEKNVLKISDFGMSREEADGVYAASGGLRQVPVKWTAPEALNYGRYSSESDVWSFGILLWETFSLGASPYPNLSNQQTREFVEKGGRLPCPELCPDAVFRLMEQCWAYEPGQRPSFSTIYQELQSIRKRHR
Test: phosphorylation enrichment, bacterial display (enrichment ratio); higher = better substrate or ligand; peptides without Tyr show the background
Endpoint: phosphorylation enrichment
No unit in the answer, only the number.

Value lookup for phosphorylation enrichment; key = TLSGIYQFSIA [FOXL2_Y81_I84S_YF]
1.04

Value lookup for phosphorylation enrichment; key = ACQGKYTPSGQ [ALDOA_Y343]
0.742

Value lookup for phosphorylation enrichment; key = FSQQTYYRVSN [ABCD1_Y180]
0.756

Value lookup for phosphorylation enrichment; key = IMVFVYSRVFQ [ADRB2_Y219]
1.16

Value lookup for phosphorylation enrichment; key = TTEHIYGDNFF [UBA7_Y524]
0.882

Value lookup for phosphorylation enrichment; key = FPKAHYHWLVL [APTX_Y214_R213H_YF]
1.29

Value lookup for phosphorylation enrichment; key = YSIAQYCCRMG [LRRK2_Y2023_G2019S]
0.708

Value lookup for phosphorylation enrichment; key = DDIPLYLKGGV [COX7A2_Y44_E40D]
1.12

Value lookup for phosphorylation enrichment; key = NSAFFYKTAEE [CCT6B_Y250_G247A]
1.23

Value lookup for phosphorylation enrichment; key = HFPFQCHRQLY [F12_Y53_Y53C]
1.05

Value lookup for phosphorylation enrichment; key = KMMGRYEMFAR [UPB1_Y362_T359M_YF]
0.599

Value lookup for phosphorylation enrichment; key = FMCKVYSDRQP [FGFR1_Y280_P283R]
1.54

Value lookup for phosphorylation enrichment; key = KGEDFYFVTCH [FHL1_Y149_C150Y_YF]
1.57

Value lookup for phosphorylation enrichment; key = ECKLFYSRKEG [PTPN11_Y263_L262F]
1

Value lookup for phosphorylation enrichment; key = FFVVRYCWLRR [MPZ_Y181_YF]
0.819

Value lookup for phosphorylation enrichment; key = KDQGIYEDFVE [MYL6_Y86_T85I_YF]
1.49

Value lookup for phosphorylation enrichment; key = ETVHRYVELLD [AP1S3_Y87_I83T]
0.997

Value lookup for phosphorylation enrichment; key = LIDGFYRLTED [JAK2_Y373_A377E_YF]
1.54

Value lookup for phosphorylation enrichment; key = PVADRYDQSFE [MAPK14_Y323_P322R]
1.5

Value lookup for phosphorylation enrichment; key = DDEVFYSPRSL [OTC_Y317]
1.36

Value lookup for phosphorylation enrichment; key = SSREGYVRHHN [FAM83B_Y433_S435R]
0.435

Value lookup for phosphorylation enrichment; key = SSQHRYSTPHT [RAF1_Y232_A237T]
0.477

Value lookup for phosphorylation enrichment; key = VEDQYYRVDCY [FHL1_Y208_C209R]
1.46

Value lookup for phosphorylation enrichment; key = TISPFYCQSLF [CRYAA_Y48_R49C_YF]
1.2

Value lookup for phosphorylation enrichment; key = KMKGDYFCFLA [YWHAG_Y130_R132C_YF]
1.18

Value lookup for phosphorylation enrichment; key = TLQIMYGCDVG [HLA-A_Y123_I119L]
1.34

Value lookup for phosphorylation enrichment; key = QRALLYEDTLF [UNC13D_Y56_A59T_YF]
4.74

Value lookup for phosphorylation enrichment; key = NRNVRYLTLDI [AKR1C2_Y305]
0.921

====

System: Grb2 SH2 (UniProt P62993)
Sequence (P62993 whole entry, looked up): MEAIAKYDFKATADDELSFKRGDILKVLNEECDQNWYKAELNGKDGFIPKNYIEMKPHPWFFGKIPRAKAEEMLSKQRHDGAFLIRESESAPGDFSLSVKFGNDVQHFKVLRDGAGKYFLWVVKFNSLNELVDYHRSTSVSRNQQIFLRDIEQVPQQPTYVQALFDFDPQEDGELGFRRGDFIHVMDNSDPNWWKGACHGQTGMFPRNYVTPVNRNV
Test: SH2 binding enrichment of the phosphorylated peptide, bacterial display (enrichment ratio); higher = better substrate or ligand; peptides without Tyr show the background
Endpoint: SH2 binding enrichment
No unit in the answer, only the number.

Value lookup for SH2 binding enrichment; key = TALFIYIRPKA [OR10C1_Y258]
0.891

Value lookup for SH2 binding enrichment; key = DFGSGYPNDPK [RNASEH2A_Y210_YF]
0.749

Value lookup for SH2 binding enrichment; key = ARVANYQRDGP [CAT_Y386]
0.606

Value lookup for SH2 binding enrichment; key = ACCLLYRGDVV [TUBA4A_Y319]
1.05

Value lookup for SH2 binding enrichment; key = AHAGGYGAEAL [HBA1_Y25_E24G]
0.905

Value lookup for SH2 binding enrichment; key = YKEQGYHRLPP [RIN1_Y681]
1.11

Value lookup for SH2 binding enrichment; key = TAALWYIFLHT [ENG_Y612_S615L_YF]
0.98

====

System: Jak2 (UniProt O60674)
Sequence (O60674 whole entry, looked up): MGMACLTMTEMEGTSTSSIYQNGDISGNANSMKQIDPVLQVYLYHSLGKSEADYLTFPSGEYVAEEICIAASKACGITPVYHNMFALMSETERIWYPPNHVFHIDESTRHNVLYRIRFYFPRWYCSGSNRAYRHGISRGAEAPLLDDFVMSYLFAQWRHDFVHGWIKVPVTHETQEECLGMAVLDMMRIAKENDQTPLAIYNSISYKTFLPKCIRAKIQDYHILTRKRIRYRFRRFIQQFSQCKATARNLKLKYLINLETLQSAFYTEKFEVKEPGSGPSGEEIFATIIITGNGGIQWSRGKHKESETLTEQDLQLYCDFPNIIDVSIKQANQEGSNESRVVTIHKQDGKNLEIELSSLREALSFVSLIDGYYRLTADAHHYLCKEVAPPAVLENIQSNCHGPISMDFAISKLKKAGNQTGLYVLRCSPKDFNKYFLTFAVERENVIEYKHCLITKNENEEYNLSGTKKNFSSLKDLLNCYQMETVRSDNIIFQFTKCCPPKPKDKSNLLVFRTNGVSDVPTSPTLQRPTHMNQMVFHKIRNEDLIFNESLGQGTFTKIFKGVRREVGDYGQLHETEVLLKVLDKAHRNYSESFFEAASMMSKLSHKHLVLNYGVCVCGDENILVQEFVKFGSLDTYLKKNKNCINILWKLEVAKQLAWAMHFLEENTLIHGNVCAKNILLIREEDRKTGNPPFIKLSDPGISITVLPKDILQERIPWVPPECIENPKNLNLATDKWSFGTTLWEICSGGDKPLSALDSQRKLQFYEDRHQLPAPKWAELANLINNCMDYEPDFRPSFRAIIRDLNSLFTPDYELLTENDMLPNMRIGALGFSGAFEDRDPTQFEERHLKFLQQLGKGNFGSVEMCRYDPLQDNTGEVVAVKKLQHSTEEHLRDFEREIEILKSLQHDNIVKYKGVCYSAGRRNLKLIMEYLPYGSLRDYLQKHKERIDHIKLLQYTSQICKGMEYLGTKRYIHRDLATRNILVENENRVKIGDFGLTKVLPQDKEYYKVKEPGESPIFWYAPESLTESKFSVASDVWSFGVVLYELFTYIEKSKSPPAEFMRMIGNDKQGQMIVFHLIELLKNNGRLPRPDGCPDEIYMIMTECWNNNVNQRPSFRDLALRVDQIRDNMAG
Test: phosphorylation enrichment, bacterial display (enrichment ratio); higher = better substrate or ligand; peptides without Tyr show the background
Endpoint: phosphorylation enrichment
No unit in the answer, only the number.

Value lookup for phosphorylation enrichment; key = NKEAICSGFIR [SMCHD1_Y283_Y283C_YF]
0.802

Value lookup for phosphorylation enrichment; key = NLNGKCNKPRA [ANGPTL3_Y417_Y417C]
0.435

Value lookup for phosphorylation enrichment; key = RAIELCNDKEK [OTULIN_Y244_Y244C]
0.752

Value lookup for phosphorylation enrichment; key = MMVGAYSTLEG [ECPAS_Y470]
0.557

Value lookup for phosphorylation enrichment; key = EIEFLYNENTV [IARS1_Y680]
1.26

Value lookup for phosphorylation enrichment; key = MGRVNYGAFIN [GLB1_Y485_YF]
0.616

Value lookup for phosphorylation enrichment; key = FSMGCYEISLE [HMGCL_Y198_G203E_YF]
1.31

Value lookup for phosphorylation enrichment; key = SYTDPYAQPPL [KMT2D_Y2378]
0.681

Value lookup for phosphorylation enrichment; key = NPIGLYSAEIL [LDB3_Y202_T206I]
0.876

Value lookup for phosphorylation enrichment; key = EFHRLYEEFTR [PIK3R1_Y467_D464H_YF]
0.714

Value lookup for phosphorylation enrichment; key = QRALLYEDTLF [UNC13D_Y56_A59T_YF]
1.68

Value lookup for phosphorylation enrichment; key = PVLSLYASGRT [ACTA1_Y145_A140P]
1.39

Value lookup for phosphorylation enrichment; key = GVASDYKCIDP [VPS13B_Y1991]
0.703

Value lookup for phosphorylation enrichment; key = GLDGSYLLRFS [SH2D1A_Y29_D33Y_YF]
0.843

Value lookup for phosphorylation enrichment; key = RISPEYKQNEI [GJB1_Y243_L239I]
0.983

Value lookup for phosphorylation enrichment; key = SFPSFYTSHVQ [NEFL_Y443_YF]
0.657

Value lookup for phosphorylation enrichment; key = DGTIVYTGLET [USH2A_Y4487]
0.901

Value lookup for phosphorylation enrichment; key = PVADRYDQSFE [MAPK14_Y323_P322R]
1.1

Value lookup for phosphorylation enrichment; key = RIDRKYKKVRF [F8_Y442_G439D]
2.67

Value lookup for phosphorylation enrichment; key = HSGVSYFINLC [IGF2R_Y2024_N2020S_YF]
1.34

Value lookup for phosphorylation enrichment; key = GGRIDYIAGLV [APRT_Y60_D65V]
0.871

Value lookup for phosphorylation enrichment; key = CDKEYYSVHNK [MET_Y1235_Y1230C]
1.32

Value lookup for phosphorylation enrichment; key = EKKDLYKAGEQ [CFH_Y1008_V1007L]
0.606

Value lookup for phosphorylation enrichment; key = SIKDKYVTALY [KCNH2_Y611]
0.597

Value lookup for phosphorylation enrichment; key = GFCSWYRGWAP [TIMP3_Y195_YF]
1.2

Value lookup for phosphorylation enrichment; key = NREGVYTVSAP [TGFBI_Y537_F540S]
0.719

Value lookup for phosphorylation enrichment; key = AIMSFYAALID [RYR1_Y2426]
1.56

Value lookup for phosphorylation enrichment; key = KILGTYYETGS [PAX2_Y72_R71T]
0.653

Value lookup for phosphorylation enrichment; key = ELCSEYRKSRK [SPINK5_Y440]
0.474

Value lookup for phosphorylation enrichment; key = GHEYIYVDPMQ [PDGFRA_Y574]
1.83

Value lookup for phosphorylation enrichment; key = PATFTYDEFKK [COL8A2_Y648_YF]
1.3

Value lookup for phosphorylation enrichment; key = TLLERYGMTKI [ACSF3_Y355_E359K]
0.625

Value lookup for phosphorylation enrichment; key = GYEEAYSVSKK [PAFAH1B1_Y28_F31S]
0.661

Value lookup for phosphorylation enrichment; key = FSQQTYCRVSN [ABCD1_Y180_Y181C]
0.764

Value lookup for phosphorylation enrichment; key = GLIPAYHRFIM [NMNAT1_Y64_V67F]
1.31

Value lookup for phosphorylation enrichment; key = IMVFVYSRVFQ [ADRB2_Y219]
0.93

Value lookup for phosphorylation enrichment; key = EVEPTYVVLYD [ERCC4_Y577_R576T]
1.1

Value lookup for phosphorylation enrichment; key = TKVTFYKQPMF [GBA_Y451_D448V]
0.853

Value lookup for phosphorylation enrichment; key = DIPIRYSITGV [CDH4_Y205]
0.85

Value lookup for phosphorylation enrichment; key = TIEDSYRKQVV [KRAS_Y40]
0.703

Value lookup for phosphorylation enrichment; key = GVLKEYGVKVL [CPS1_Y529]
0.391

Value lookup for phosphorylation enrichment; key = PLKYLYPNIDK [STAT1_Y668]
1

Value lookup for phosphorylation enrichment; key = IDGLEYLHSQS [STK11_Y166_G171S]
0.831

Value lookup for phosphorylation enrichment; key = VQEDIYDEFVV [ALDH2_Y332_E337V]
1.37

Value lookup for phosphorylation enrichment; key = SYCYRYRCAAQ [SUMF1_Y344_R349Q]
0.599

Value lookup for phosphorylation enrichment; key = VVQGIYGYHHY [UFSP2_Y285]
0.683

Value lookup for phosphorylation enrichment; key = SLALFYRKVYH [RBL1_Y792]
1.14

Value lookup for phosphorylation enrichment; key = RHPYFFAPELL [ALB_Y174_Y174F]
1.39

Value lookup for phosphorylation enrichment; key = MASISYDYCRV [BST2_Y6_T4I]
1.09

Value lookup for phosphorylation enrichment; key = EEQKKYYNATK [SCN5A_Y1494_M1498T]
0.476

Value lookup for phosphorylation enrichment; key = LTTPTYGDLNH [TUBB_Y222]
0.84

Value lookup for phosphorylation enrichment; key = LSQDVYEEDSF [RET_Y900_R897Q_YF]
2.56

Value lookup for phosphorylation enrichment; key = TSNQEYLDLSM [FGFR1_Y766]
1.03

Value lookup for phosphorylation enrichment; key = GLALRCLSDHS [VWF_Y1584_Y1584C]
0.961

Value lookup for phosphorylation enrichment; key = FAADFYKLLGN [ROR2_Y646_YF]
1.16

Value lookup for phosphorylation enrichment; key = NKVKFYIPFMN [NCR1_Y84_D87Y_YF]
0.824

Value lookup for phosphorylation enrichment; key = QDGFSYPSRQM [LDLR_Y847_YF]
0.454
